Reported IC50 values for the following molecules.
- measured on: PRMT5/MEP50 (Homo sapiens)
- Construct: Expressed full-length human Flag-PRMT5/6His-MeP50 protein complex was purified; made in house; host or cells: Spodoptera frugiperda (SF9) insect cells, baculovirus (pDEST8)
- Sequence (O14744 with tags, fused parts or gaps): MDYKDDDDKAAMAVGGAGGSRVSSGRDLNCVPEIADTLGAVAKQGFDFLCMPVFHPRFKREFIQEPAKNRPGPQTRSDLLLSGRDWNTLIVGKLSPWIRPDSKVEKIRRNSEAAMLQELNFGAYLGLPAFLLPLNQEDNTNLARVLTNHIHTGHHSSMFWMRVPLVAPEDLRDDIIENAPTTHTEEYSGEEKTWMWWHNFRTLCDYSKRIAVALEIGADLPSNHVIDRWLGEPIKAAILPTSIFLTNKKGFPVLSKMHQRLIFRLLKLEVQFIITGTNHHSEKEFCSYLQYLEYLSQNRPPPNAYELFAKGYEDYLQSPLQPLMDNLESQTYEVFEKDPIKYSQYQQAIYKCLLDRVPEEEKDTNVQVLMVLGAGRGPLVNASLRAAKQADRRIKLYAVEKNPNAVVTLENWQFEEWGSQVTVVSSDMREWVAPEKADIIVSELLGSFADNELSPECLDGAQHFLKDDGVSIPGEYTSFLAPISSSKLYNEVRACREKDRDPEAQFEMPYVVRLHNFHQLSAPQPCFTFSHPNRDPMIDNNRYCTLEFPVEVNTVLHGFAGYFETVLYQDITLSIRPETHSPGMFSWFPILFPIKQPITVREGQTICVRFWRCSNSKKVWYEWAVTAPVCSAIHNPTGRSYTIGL
- Sequence (Q9BQA1 with tags, fused parts or gaps partner limits assumed): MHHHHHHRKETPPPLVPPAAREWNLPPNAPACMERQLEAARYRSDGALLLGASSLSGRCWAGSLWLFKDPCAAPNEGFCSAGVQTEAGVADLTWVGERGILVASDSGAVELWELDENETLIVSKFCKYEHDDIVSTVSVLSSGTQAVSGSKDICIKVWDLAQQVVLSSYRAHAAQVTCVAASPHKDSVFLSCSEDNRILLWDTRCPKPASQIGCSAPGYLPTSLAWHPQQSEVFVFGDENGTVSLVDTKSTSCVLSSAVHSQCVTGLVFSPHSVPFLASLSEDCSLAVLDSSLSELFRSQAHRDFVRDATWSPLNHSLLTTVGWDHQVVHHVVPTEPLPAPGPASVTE
- assay: PRMT5 Biochemical Assay (PRMT5/MEP50 enzyme assay on peptide substrate, 3H-SAM Flashplate)
- condition context: PRMT5 biochemical assay, Table C-2; read-out: Biochemical IC50

>>> print(df.to_string())
                                   molecule    result
0  O=C1CN(c2ccc(Cl)cc2)CCN1CC(O)CN1CCc2ccccc2C1 (stereo not drawn) [Compound C7]  < 0.1 µM

stdin: Fill in reported IC50 for this entry: O=C1CN(c2cncc(N3CCOCC3)c2)CCN1CC(O)CN1CCc2ccccc2C1 (stereo not drawn) [Compound C8]
stdout: < 0.1 µM

stdin: Fill in reported IC50 for this entry: O=c1cc(Nc2ccccc2)ccn1C[C@H](O)CN1CCc2ccccc2C1 [Compound C18]
stdout: 1 to 10 µM

stdin: Fill in reported IC50 for this entry: CS(=O)(=O)N1CCN(CC(O)CN2CCc3ccccc3C2)C(=O)C1 (stereo not drawn) [Compound C22]
stdout: 1 to 10 µM

stdin: Fill in reported IC50 for this entry: O=C1CC(c2ccccc2)CCN1C[C@@H](O)CN1CCc2ccccc2C1 (stereo partly drawn) [Compound C17]
stdout: 1 to 10 µM

* * *

- measured on: PRMT5/MEP50 (Homo sapiens)
- Construct: Expressed full-length human Flag-PRMT5/6His-MeP50 protein complex was purified; made in house; host or cells: Spodoptera frugiperda (SF9) insect cells, baculovirus (pDEST8)
- assay: PRMT5 Biochemical Assay (PRMT5/MEP50 enzyme assay on peptide substrate, 3H-SAM Flashplate)
- condition context: Table D-2; read-out: Biochemical IC50
pIC50: −log10 of the molar value.
Reported pIC50 values for the following molecules.

                                   molecule                 measured_on        result
0  COc1cccc2c1CN(CC(O)COc1cccc(-c3ccc4ncn(C)c4c3)c1)CC2 (stereo not shown)  PRMT5/MEP50 (Homo sapiens)  5.00 to 6.00
1  OC(CCc1cccc(CNC2CCCC2)c1)CN1CCc2ccccc2C1 (stereo not shown)  PRMT5/MEP50 (Homo sapiens)  4.40 to 5.00

stdin: Fill in reported pIC50 for this entry: CN(CC(O)CN1CCc2ccccc2C1)c1cccc(CNC2CCOCC2)c1 (stereo not shown)
stdout: > 7.00

* * *

- System: Z-138 cells
- assay: Z-138 Methylation Assay (In Cell Western for symmetric di-methyl arginine and DNA content)
- Type: cell-based
- condition context: Homo sapiens, Table D-2, read-out: ICW EC50
Reported EC50 values for the following compounds.

# count of solved cases: 3
>>> print(df.to_string())
                                   compound            result
0  CN(C)c1ncc(-c2cccc(OCC(O)CN3CCc4ccccc4C3)c2)cn1 (stereo not shown) [Compound D125]  1000 to 10000 nM
1  OC(CNc1cc(-c2ccc3ncn(C4COC4)c3c2)ccn1)CN1CCc2ccccc2C1 (stereo not shown) [Compound D265]    101 to 1000 nM
2  COC(=O)c1cccc(-c2cccc(OCC(O)CN3CCc4ccccc4C3)c2)c1 (stereo not shown) [Compound D135]        > 20000 nM

stdin: Provide Z-138 cells EC50 reading for CNC(=O)c1cncc(-c2cccc(OCC(O)CN3CCc4ccccc4C3)c2)c1 (stereo not shown) [Compound D182] .
stdout: 1000 to 10000 nM

Cited source for all entries: patent US20150344457A1
